Assay Text: activity coefficient (dimensionless); of the first substance listed, at infinite dilution; xn = mol fraction of the nth substance listed
Experimental Conditions: 283.15 K; 101 kPa; Liquid; inert gas stripping, headspace analysis in two variants - the classical and the relative, Rayleigh distillation, and circulation still; x1 = 0
Sorting guide: entries reporting activity coefficient beneath 70 go in the yes (1) pile, the rest go in the no (0) pile.

{"columns": ["Compound", "Class Name"],
 "data": [
  ["CC(C)CCO [3-methylbutan-1-ol] + O", "no (0)"],
  ["CCC(C)CO (stereo unspecified) [2-methyl-1-butanol] + O", "no (0)"],
  ["CC(C)C(C)O (stereo unspecified) [3-methyl-2-butanol] + O", "yes (1)"],
  ["CCCC(C)O (stereo unspecified) [pentan-2-ol] + O", "no (0)"],
  ["CCC(O)CC [3-pentanol] + O", "yes (1)"],
  ["CCC(C)(C)O [2-methylbutan-2-ol] + O", "yes (1)"]
]}
